test system: NCI/ADR-RES; experiment: NCI tumour cell line growth inhibition, 48 h
Activity calls are given as the source filed them. Cut-off read from the data, not from the text of the source: active = GI50 up to about 1.1 µM and inactive = higher.
Outcomes: active, inactive

{"compound": "O=C(OCc1ccccc1)N(CCCCN(CCCNCc1ccccc1)C(=O)OCc1ccccc1)CCCNCc1ccccc1", "class_label": "inactive"}
{"compound": "COc1cc(C2SCC(=O)N2c2ccccc2Cl)cc(OC)c1OC (configuration not stated)", "class_label": "inactive"}
{"compound": "C=C1C(=O)OC2/C=C(CO)/C=C\\C3OC3(C)CC(OC(=O)/C(C)=C/COC(C)=O)C12 (configuration not stated)", "class_label": "inactive"}
{"compound": "N#Cc1c(-c2ccccc2)c(/N=N/c2ccc(Cl)cc2)c(=O)n2c1[nH]c1ccccc12", "class_label": "inactive"}
{"compound": "CC(C)CCCCCCCCCCCCC(=O)NCC(=O)NC1C(O)C(O)C(Nc2[nH]cnc3ncnc2-3)OC1C(O)CO (configuration not stated)", "class_label": "active"}
{"compound": "CCNCCNC(=O)c1ccc(I)cc1", "class_label": "inactive"}
{"compound": "COC(OC)(c1ccccc1)C(I)I", "class_label": "inactive"}
{"compound": "CN(CCCNC(=O)c1cc(-c2ccccc2)nc2ccccc12)CCCNC(=O)c1cc(-c2ccccc2)nc2ccccc12", "class_label": "inactive"}
{"compound": "COc1ccc(-c2oc3c(OC)c(OC)c(OC)c(OC)c3c(=O)c2OC)cc1OC", "class_label": "inactive"}
{"compound": "Cc1ccc(NC2=CC(=O)C(NO)c3ccccc32)cc1 (configuration not stated)", "class_label": "inactive"}
{"compound": "COc1cccc2[nH]c(-c3ccccn3)nc12", "class_label": "inactive"}
{"compound": "COc1c(/C=C/C(C)(C)O)cc(C2CC(=O)c3c(O)cc(O)cc3O2)cc1CC=C(C)C (configuration not stated)", "class_label": "inactive"}
{"compound": "CC(C)(C)OC(=O)N(O)CCCn1cnc2c(NC3CC3)ncnc21", "class_label": "inactive"}
{"compound": "COc1ccc(N2C(=O)c3cccnc3S2(=O)=O)cc1", "class_label": "inactive"}
{"compound": "COc1nc(N)c(NC2OC(CO)C(O)C2O)c(=O)[nH]1 (configuration not stated)", "class_label": "inactive"}
{"compound": "Cc1ccc(C2SC(=N)Nc3c2c(C)nn3C(=O)c2ccc(Cl)cc2)cc1 (configuration not stated)", "class_label": "inactive"}
{"compound": "CN(C)/N=C1/CCC(C(F)(F)F)(C(F)(F)F)O1", "class_label": "inactive"}
{"compound": "O=C1/C(=C\\c2cccc(Oc3ccccc3)c2)SC(c2ccccc2)N1c1ccccc1 (configuration not stated)", "class_label": "inactive"}
{"compound": "O=C(Nc1ccccc1)c1cc2ccccc2c(/N=N/c2ccc([N+](=O)[O-])cc2)c1O", "class_label": "inactive"}
{"compound": "O=C(O)c1ccc([N+](=O)[O-])c2cc3cnccc3nc12", "class_label": "inactive"}
{"compound": "CC(=O)n1[nH]c(=O)n(-c2ccc(Cl)cc2)c1=O", "class_label": "inactive"}
{"compound": "CCOc1cc(C(c2c(O)c3ccccc3oc2=O)c2c(O)c3ccccc3oc2=O)ccc1OC", "class_label": "inactive"}
{"compound": "Cc1nc2sc3ccccc3n2c(=O)c1/N=N/c1ccc(Br)cc1", "class_label": "inactive"}
{"compound": "CC1OC(CO)(n2cnc3c(N)ncnc32)C(O)C1O (configuration not stated)", "class_label": "inactive"}
{"compound": "C=C1C(=O)OC2C=C(C)CC3C=C(CCC=C(C)CCC12)C(=O)O3 (configuration not stated)", "class_label": "inactive"}
{"compound": "C#CC[N+](CCO)(CCO)CCCCCCCCCCCCCCCCCC", "class_label": "inactive"}
{"compound": "CC(C)(C)OC(=O)NC1CCC(C(C)(C)C)CC1 (configuration not stated)", "class_label": "inactive"}
{"compound": "Cc1c(C(=O)N2CCN(c3ccc([N+](=O)[O-])cc3)CC2)[n+]([O-])c2cc(Cl)c(Cl)cc2[n+]1[O-]", "class_label": "inactive"}
{"compound": "COC1/C=C/C(C)C(O)CC(O)/C=C/C(C)C(C(C)C(OC)C(C)CCC(=O)C(C)C(C/C=C/N(C)C=O)OC)OC(=O)/C=C/C=C(\\C)CC(OC)CC2=CC(=O)O[C@@H](C(C)C(OC)C1)[C@H]2O (some centres not stated)", "class_label": "active"}
{"compound": "COc1ccc(/C=C/[N+](=O)[O-])cc1", "class_label": "inactive"}
{"compound": "COC1/C=C\\C=C(/C)C(=O)NC2=CC(=O)C(N)=C(CC(C)CC(OC)C(O)C(C)C=C(C)C1OC(N)=O)C2=O (configuration not stated)", "class_label": "inactive"}
{"compound": "C/C=N\\n1c(C)n[nH]c1=O", "class_label": "inactive"}
